The measurements presented in this section are drawn from patent US20120135923A1.

# ASSAY_TARGET: T1, human melanocortin receptor subtype 3 (hMC3-R) (human, UniProt P41968 1-323)
# T1 construct: whole, on cells; membranes of CHO-K1 cells
# T1 sequence (P41968 whole entry): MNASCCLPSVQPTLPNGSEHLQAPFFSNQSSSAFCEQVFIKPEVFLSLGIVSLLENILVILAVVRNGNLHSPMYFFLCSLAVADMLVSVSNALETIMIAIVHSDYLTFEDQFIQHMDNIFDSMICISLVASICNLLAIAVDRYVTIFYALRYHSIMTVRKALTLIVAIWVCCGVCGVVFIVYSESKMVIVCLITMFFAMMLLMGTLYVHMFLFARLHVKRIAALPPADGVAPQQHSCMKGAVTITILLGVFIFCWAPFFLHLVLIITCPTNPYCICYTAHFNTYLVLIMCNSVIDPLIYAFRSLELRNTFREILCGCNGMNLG
# PROTOCOL_DESCRIPTION: [125I]-NDP-α-MSH competition, membranes
pKi: −log10 of the molar value. Bridge positions count the residues as written; N and C are the ends. Square brackets hold non-standard residues; d marks the D form. Ends that are not written are not given here. d2Nal = N[C@H](Cc1ccc2ccccc2c1)C(=O)O; Bta = N[C@@H](Cc1csc2ccccc12)C(=O)O; Apc = not defined here; Ac3c = NC1(C(=O)O)CC1; βAla = NCCC(=O)O
EXPERIMENTAL_ENDPOINT: pKi

>  <BINDER>
Ac-CEH[d2Nal]RWACPPKD-NH2 (disulfide 1-8; SMILES CC(=O)N[C@H]1CSSC[C@@H](C(=O)N2CCC[C@H]2C(=O)N2CCC[C@H]2C(=O)N[C@@H](CCCCN)C(=O)N[C@@H](CC(=O)O)C(N)=O)NC(=O)[C@H](C)NC(=O)[C@H](Cc2c[nH]c3ccccc23)NC(=O)[C@H](CCCNC(=N)N)NC(=O)[C@@H](Cc2ccc3ccccc3c2)NC(=O)[C@H](Cc2c[nH]cn2)NC(=O)[C@H](CCC(=O)O)NC1=O) [Ac-c(Cys-Glu-His-D-2-Nal-Arg-Trp-Ala-Cys)-Pro-Pro-Lys-Asp-NH2]

>  <RESULT_NUMBER>
8.05

$$$$
>  <BINDER>
D[Apc][d2Nal]RWK-NH2 (lactam 1-6; reading uncertain; also: hydantoin ring: N-terminal N of Asp1 and backbone N of residue 2 bridged by one C(O), bridge at N via C(O), other end not in the chain, printed as c[Hydantoin(C(O)-(Asp-Apc))-D-2-Nal-Arg-Trp-Lys]-NH2) [c[Hydantoin(C(O)-(Asp-Apc))-D-2-Nal-Arg-Trp-Lys]-NH2]

>  <RESULT_NUMBER>
5.56

$$$$
>  <BINDER>
CEHXRXACPPKDXYGRKKRRQRRR (N-terminal Ac; D-2-Nal at 4; 1-Nal at 6; β-Ala at 13; disulfide Cys1-Cys8; C-terminal NH2)

>  <RESULT_NUMBER>
8.20

$$$$
>  <BINDER>
GCEH[dF]RWC-NH2 (disulfide 2-8; also: hydantoin ring from C(O) with Gly1-Cys2) [c[Hydantoin(C(O)-(Gly-Cys))-Glu-His-D-Phe-Arg-Trp-Cys]-NH2]

>  <RESULT_NUMBER>
6.52

$$$$
>  <BINDER>
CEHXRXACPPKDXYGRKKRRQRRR (N-terminal Ac; D-2-Nal at 4; Bal at 6; β-Ala at 13; disulfide Cys1-Cys8; C-terminal NH2)

>  <RESULT_NUMBER>
8.28

$$$$
>  <BINDER>
D[Ac3c][d2Nal]RWK-NH2 (lactam 1-6; also: hydantoin ring: N-terminal N of Asp1 and backbone N of residue 2 bridged by one C(O), bridge at N via C(O), other end not in the chain) [c[Hydantoin(C(O)-(Asp-A3c))-D-2-Nal-Arg-Trp-Lys]-NH2]

>  <RESULT_NUMBER>
5.72

$$$$
>  <BINDER>
Ac-CEH[d2Nal]R[Bta]ACPPKD[βAla]YGRKRRRQRRR-NH2 (disulfide 1-8)

>  <RESULT_NUMBER>
8.95

$$$$
>  <BINDER>
Ac-CEH[d2Nal]R[Bta]ACPPKD[βAla]RRRRRRQRRR-NH2 (disulfide 1-8)

>  <RESULT_NUMBER>
7.84

$$$$
